B1: HDV Ribozyme (parent)
chain: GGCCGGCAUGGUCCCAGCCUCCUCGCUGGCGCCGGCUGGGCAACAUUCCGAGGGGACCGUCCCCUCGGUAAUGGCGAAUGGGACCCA

Variants of: B1
Test: self-cleavage, relative activity (ratio to wild type); higher = more cleavage; co-transcriptional
Output: class label from self-cleavage. Mapping: bottom range = under 0.1, center range = from 0.1 up to 0.3, top range = 0.3 and over

Exam item: Class? Entry: G1A A71C
Marked response: center range

Exam item: Hi there! Could you help me figure out the category for C49U G81U please?
Marked response: top range

Exam item: Classify this variant: G11U G25U
Marked response: bottom range

Exam item: Using the reported self-cleavage, which band applies to U27C C75A ?
Marked response: center range

Exam item: Which self-cleavage band matches C21G A56C ?
Marked response: bottom range

Exam item: Band for the recorded self-cleavage of C30G A77U ?
Marked response: bottom range

Exam item: Dear colleague, I would appreciate it if you could identify the bin for C36G U37G and reply at your convenience.
Marked response: center range

Exam item: Please let me know in which category the item G28A C75U belongs.
Marked response: bottom range

Exam item: Band assignment needed for G17A G59C please.
Marked response: top range

Exam item: Just checking, what class would you give G28A G54C here?
Marked response: center range

Exam item: Please classify: U69G C75G
Marked response: center range

Exam item: Lab log: C26U C49U — assign self-cleavage category
Marked response: top range

Exam item: Classify this variant: C36U A42G
Marked response: center range

Exam item: Pick a category. Item: G25U G40C
Marked response: bottom range

Exam item: For the record G73U A87C , report the class its self-cleavage corresponds to.
Marked response: top range

Exam item: Class for U20G G59U ?
Marked response: center range

Exam item: Where would G10A A83C land among the classes by reported self-cleavage?
Marked response: center range

Exam item: Class for C15A G73U ?
Marked response: bottom range

Exam item: Exercise: read the entry C15U A78C and state which class it falls under.
Marked response: center range

Exam item: Bin? G34U C85G
Marked response: center range

Exam item: Field: class (self-cleavage) — entry: A77U C85U
Marked response: top range

Exam item: Into which category would you place A8U C57G ?
Marked response: top range

Exam item: Kindly identify the class of C3A G55U .
Marked response: top range

Exam item: // bin(item) where item = C84A C85U
Marked response: top range

Exam item: Record U12A G59A — which class?
Marked response: center range

Exam item: Which class does U20G C44U fall in?
Marked response: center range

Exam item: Bin? U47G G76U
Marked response: top range

Exam item: Form: Item = A16G G25U ; Class = ?
Marked response: bottom range

Exam item: Given A8G A87C , name the class its self-cleavage places it in.
Marked response: top range

Exam item: Which category does the recorded self-cleavage put U46C A78C in?
Marked response: bottom range

Exam item: Please classify: A56U C62G
Marked response: top range

Exam item: Exercise: read the entry G31C G76C and state which class it falls under.
Marked response: top range

Exam item: Category of C3A G74C :
Marked response: bottom range

Exam item: Form: Item = G6C C30A ; Class = ?
Marked response: bottom range

Exam item: Could you tell me which band U69G G74U belongs to?
Marked response: top range

Exam item: Form: Item = G1U C4G ; Class = ?
Marked response: top range

Exam item: Please classify: G2U C3A
Marked response: bottom range

Exam item: Form field 'band' for G11U A83U
Marked response: center range

Exam item: Category lookup for the variant A45C C63G
Marked response: top range

Exam item: Exercise: read the entry G5U A43C and state which class it falls under.
Marked response: bottom range

Exam item: Tag the class for G6A G73U
Marked response: center range

Exam item: Sort U69C A83C into one of the categories.
Marked response: top range

Exam item: # classify by self-cleavage band: C66U A78C
Marked response: center range

Exam item: Which category fits this record: C41U G82U
Marked response: center range
